Listing of entries alongside the reported growth inhibition.
assay_procedure: NCI Yeast Anticancer Drug Screen. Data for the mec2-1 strain (AID 157)
test_context: S. cerevisiae mec2-1 strain, at 50.0 µM, active compounds read high
This is part of a sample that, as a whole, favours compounds with a hit. Of some 79,000 tested, about 15% had one in any assay.
Record the value in %, omitting the unit from your answer.

{"compound": "Clc1ccc(Cl)c(SCCCN2CCNCC2)c1", "growth inhibition (%)": 48.2}

Incoming: Provide growth inhibition value for the following compound: Clc1ccccc1CCc1cc(-c2ccccc2)n[nH]1
Outgoing: 94.7

Incoming: Fill in growth inhibition for record O=C(NC1(OC(=O)c2ccc(Cl)cc2)CC1)c1ccc(Cl)cc1
Outgoing: 97.9

Incoming: Consider the compound C=C1C(=O)OC2CC(C)C3C=CC(=O)C3CC12 (configuration not stated) . State its measured growth inhibition.
Outgoing: 91.6

Incoming: # return recorded growth inhibition for input CCC(=O)OC1CCC(C2CCCCC2)CC1 (configuration not stated)
Outgoing: -9.55

Incoming: Read the entry COc1ccccc1C1c2cc3c(cc2OC2(OC)COC(=O)C12)OCO3 (configuration not stated) and write its reported growth inhibition.
Outgoing: 0

Incoming: Annotate the compound Cc1cnc(Sc2c([N+](=O)[O-])ncn2C)nc1 with its measured growth inhibition.
Outgoing: 98.2
